The following sequences are listed with their measured recombinant UMI read abundance (log10) values.
- measurement protocol: recombinant UMI read abundance after kanamycin selection (control-corrected) (log10(CPM+1)); higher = more efficient recombination; extreme values may be limits of the assay; sequences stand for … in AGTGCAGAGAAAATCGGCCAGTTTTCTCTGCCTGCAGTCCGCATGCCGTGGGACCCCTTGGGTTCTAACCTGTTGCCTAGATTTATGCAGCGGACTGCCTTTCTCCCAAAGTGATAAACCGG…AGGTTGGTTTCACT; site = the 11-nt donor;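 note: IS621 bridge recombinase in Escherichia coli cells against a fixed T5 target plasmid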

| sequence chain | recombinant UMI read abundance (log10) |
| --- | --- |
| GACGAAACATGGACCGGTTTTCCCGGTAATCCGTATTTGTA (site GACGAAACTTA) | 2.54 |
| CAAGTCGCATGGACCGGTTTTCCCGGTAATCCGTATTTGGT (site CAAGTCGCTAC) | 1.77 |
| CGAGATCCATGGACCGGTTTTCCCGGTAATCCGTATTTGTT (site CGAGATCCTAA) | 1.4 |
| TAGCTATCATGGACCGGTTTTCCCGGTAATCCGTATTTGAA (site TAGCTAACTTT) | 0.00325 |
| GTTCGGCCATGGACCGGTTTTCCCGGTAATCCGTATTTGGT (site GTTCGGCCTAC) | 0.00718 |
| TGGCCGGCATGGACCGGTTTTCCCGGTAATCCGTATTTGCC (site TGGCCGGCTGT) | 0.00896 |
| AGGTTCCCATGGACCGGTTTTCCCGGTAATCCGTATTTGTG (site AGGTTCTCTCA) | 0.634 |
| CGGATTCCATGGACCGGTTTTCCCGGTAATCCGTATTTGTA (site CGGAATCCTAA) | 0.0133 |
| GAAGATTCATGGACCGGTTTTCCCGGTAATCCGTATTTGTT (site GCAGATTCTAA) | 0.013 |
| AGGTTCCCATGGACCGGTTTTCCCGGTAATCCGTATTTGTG (site AGGTTCCCTTA) | 0 |
| CTGGACACATGGACCGGTTTTCCCGGTAATCCGTATTTGCA (site CTGGATACTTG) | 1.66 |
| CTGTCCTCATGGACCGGTTTTCCCGGTAATCCGTATTTGTT (site CTGTCCTCTAA) | 1.92 |
| AATTCTGCATGGACCGGTTTTCCCGGTAATCCGTATTTGGA (site AATTGTGCTTC) | 0.0372 |
| CCATACTCATGGACCGGTTTTCCCGGTAATCCGTATTTGCA (site ACATACTCTTG) | 0.648 |
| GAGCGGACATGGACCGGTTTTCCCGGTAATCCGTATTTGGC (site GAGCGGACTGC) | 2.85 |
| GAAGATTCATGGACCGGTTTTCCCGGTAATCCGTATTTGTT (site GATGATTCTAA) | 0.296 |
| ACCTGGACATGGACCGGTTTTCCCGGTAATCCGTATTTGGG (site ACCTAGACTCC) | 0.00306 |
| CCATCCTCATGGACCGGTTTTCCCGGTAATCCGTATTTGGT (site CCATCCTCTAC) | 1.38 |

====

- measurement protocol: recombinant UMI read abundance after kanamycin selection (control-corrected) (log10(CPM+1)); higher = more efficient recombination; extreme values may be limits of the assay; sequences stand for … in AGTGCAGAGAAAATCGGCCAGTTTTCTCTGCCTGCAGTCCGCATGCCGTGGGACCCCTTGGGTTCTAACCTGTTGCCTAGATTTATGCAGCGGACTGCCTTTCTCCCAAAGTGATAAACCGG…AGGTTGGTTTCACT; site = the 11-nt donor
The following sequences are listed with their measured recombinant UMI read abundance (log10) values.

| sequence chain | recombinant UMI read abundance (log10) |
| --- | --- |
| AGGATCTCATGGACCGGTTTTCCCGGTAATCCGTATTTGAA (site AGGATCTCTTT) | 2.92 |
| GCGGCACCATGGACCGGTTTTCCCGGTAATCCGTATTTGCA (site GGGGCACCTTG) | 0.008 |
| AGTTCCCCATGGACCGGTTTTCCCGGTAATCCGTATTTGTA (site AGTTCCCCTTA) | 0.124 |
| GGTACGACATGGACCGGTTTTCCCGGTAATCCGTATTTGTT (site GGTACGTCTAA) | 0.0179 |
| GCTAGAACATGGACCGGTTTTCCCGGTAATCCGTATTTGAG (site GCTAGAACTCT) | 1.83 |
| CAAGTCACATGGACCGGTTTTCCCGGTAATCCGTATTTGGG (site GAAGTCACTCC) | 0.0173 |
| CTCCCGACATGGACCGGTTTTCCCGGTAATCCGTATTTGAG (site CTCCCAACTCT) | 0.849 |
| AACACCCCATGGACCGGTTTTCCCGGTAATCCGTATTTGAG (site AACACCCCTCT) | 0.0941 |
| CCTATATCATGGACCGGTTTTCCCGGTAATCCGTATTTGTC (site CCCATATCTGA) | 0.00678 |
| ACGGGGCCATGGACCGGTTTTCCCGGTAATCCGTATTTGCA (site ACGGGGCCTTG) | 0 |
| CTGCTATCATGGACCGGTTTTCCCGGTAATCCGTATTTGCT (site CTGCTAACTAG) | 0.708 |
| ATGCCCGCATGGACCGGTTTTCCCGGTAATCCGTATTTGCA (site ATGCCCGCTTG) | 2.01 |
| GTCGTCGCATGGACCGGTTTTCCCGGTAATCCGTATTTGCG (site GTAGTCGCTCG) | 0.0332 |
| GCGCTCACATGGACCGGTTTTCCCGGTAATCCGTATTTGAT (site GAGCTCACTAT) | 0.12 |
| CAATCCTCATGGACCGGTTTTCCCGGTAATCCGTATTTGCC (site CAATCCTCTGG) | 1.54 |
| ATGCACGCATGGACCGGTTTTCCCGGTAATCCGTATTTGGG (site ATGCACGCTCC) | 0.239 |
| TTTGCCGCATGGACCGGTTTTCCCGGTAATCCGTATTTGCT (site TTTGCGGCTAG) | 0.00684 |
| CGGAAGTCATGGACCGGTTTTCCCGGTAATCCGTATTTGCC (site CGGCAGTCTGG) | 0 |
| CCCATATCATGGACCGGTTTTCCCGGTAATCCGTATTTGTC (site CCCCTATCTGA) | 0 |
| ACACGTACATGGACCGGTTTTCCCGGTAATCCGTATTTGTC (site ACACGGACTGA) | 0 |
| TTCAGTGCATGGACCGGTTTTCCCGGTAATCCGTATTTGGC (site TTCAGTGCTGC) | 0 |
| CCCGTCCCATGGACCGGTTTTCCCGGTAATCCGTATTTGGA (site CCCGTCCCTTC) | 0.00421 |
| TTAGTCGCATGGACCGGTTTTCCCGGTAATCCGTATTTGCG (site TTAGTCGCTCG) | 0.224 |
| CCCAGTCCATGGACCGGTTTTCCCGGTAATCCGTATTTGCA (site CCCCGTCCTTG) | 0 |
| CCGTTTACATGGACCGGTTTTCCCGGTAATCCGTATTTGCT (site CCGCTTACTAG) | 0 |
| GATTCGACATGGACCGGTTTTCCCGGTAATCCGTATTTGAC (site GATTGGACTGT) | 0 |
| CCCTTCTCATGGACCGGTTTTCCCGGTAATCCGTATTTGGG (site CCCTTCACTCC) | 0.0149 |
| CTACTAACATGGACCGGTTTTCCCGGTAATCCGTATTTGGA (site CTACTAACTGC) | 0 |
| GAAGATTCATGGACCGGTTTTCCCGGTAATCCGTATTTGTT (site GAAGCTTCTAA) | 0.0109 |
| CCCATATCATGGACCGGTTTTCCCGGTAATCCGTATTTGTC (site CCCTTATCTGA) | 0.395 |
| TCCACAGCATGGACCGGTTTTCCCGGTAATCCGTATTTGCG (site TCCACGGCTCG) | 0.0203 |
| GTGGGTTCATGGACCGGTTTTCCCGGTAATCCGTATTTGCA (site GTGGGTTCTTG) | 2.55 |
| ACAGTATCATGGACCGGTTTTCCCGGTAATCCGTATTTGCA (site ACAGTATCTTA) | 2.23 |
| GCGGAAGCATGGACCGGTTTTCCCGGTAATCCGTATTTGGT (site GCGGAAGCTAC) | 1.72 |
| CCGAAGCCATGGACCGGTTTTCCCGGTAATCCGTATTTGGG (site GCGAAGCCTCC) | 0.0226 |
| CTATTGTCATGGACCGGTTTTCCCGGTAATCCGTATTTGAC (site CTATTGTCTGT) | 0 |
